Molecular target: T1, HLA-A*0201 loaded with the Carcinoembryonic antigen (CEA)-derived … peptide (biotin on the C-terminal biotinylation tag)
T1 construct: Soluble, biotinylated, immobilised on a streptavidin chip
Assay: Biacore SPR
MEASURED_PROPERTY: koff

SEQ ID NO 91 (receptor, mutated soluble two domain ILT-2) MGHLPKPTLWAEPGSVITQGSPVTLRCQGGQETQEYRLYREKKTAPWITRIPQELVKKGQFPIPSVTWEHAGRYRCYYGSDTAGRSESSDPLELVVTGVYIKPTLSAQPSPVVNSGGNVTLQCDSQVAFDGFILCKEGEDEHPQCLNSQPHARGSSRAIFSVGPVSPSRRWWYRCYAYDSNSPYEWSLPSDLLELLVL yielded koff of ≤ 2 s⁻¹
